Assay: gradient 5% acetonitrile 3 min, to 50% in 2 min, to 85% in 15 min, held 3 min, 100 µL/min
Conditions: column: Zorbax Extend-C18 2.1 x 50 mm; eluents: water / acetonitrile, 0.1% formic acid
value_type: RP-LC retention time (s)

Here is how some compounds turned out for RP-LC retention time.
[[record]]
compound = "CC(C)(C)c1ccc(C(=O)Nc2nc(-c3ccc(F)cc3)cs2)cc1"
value_type = "RP-LC retention time"
observed_measurement = 1310

[[record]]
compound = "CN1C(=O)C2CCCCN2c2ccc(C(=O)NCCCN3CCOCC3)cc21 (centres undefined)"
value_type = "RP-LC retention time"
observed_measurement = 579

[[record]]
compound = "Cc1ccc(C)c(-c2csc(Nc3ccc(Br)cn3)n2)c1"
value_type = "RP-LC retention time"
observed_measurement = 1330


[A] COc1ccc(S(=O)(=O)Nc2cc(-c3cn4ccccc4n3)ccc2C)cc1C
[B] COc1ccc(OC)c(NC(=O)c2cc3c(=O)n(CC(C)C)c4ccccc4n3n2)c1
I'm curious, which of these has a smaller RP-LC retention time number: A or B ? # respond with the chosen item's label
A
(A: 682 s, B: 1240 s)

###

Test: gradient 5% acetonitrile 3 min, to 50% in 2 min, to 85% in 15 min, held 3 min, 100 µL/min
Settings: column: Zorbax Extend-C18 2.1 x 50 mm; eluents: water / acetonitrile, 0.1% formic acid
value_type: RP-LC retention time (s)

Here is how some compounds turned out for RP-LC retention time.
[[record]]
compound = "O=C(Nc1ccc2c(c1)OCO2)C1CCc2sc(C(=O)N3CCCC3)cc2C1 (centres undefined)"
observed_measurement = 730

[[record]]
compound = "Cc1ccc2c(c1)N(S(C)(=O)=O)CCC(C(=O)Nc1cccc(Cl)c1)O2 (centres undefined)"
observed_measurement = 1020

[[record]]
compound = "Cc1cc2c(=O)n(CC(=O)Nc3ccc(Br)cc3F)ccc2s1"
observed_measurement = 869

[[record]]
compound = "Cc1cccc2nnc(N3CCN(C(=O)c4ccc(Cl)s4)CC3)n12"
observed_measurement = 701

[[record]]
compound = "O=C(Cc1cn2cc(F)ccc2n1)Nc1ccc(Cl)cc1Cl"
observed_measurement = 666


[P] COCCNC(=O)N1CCCC(COC)C1 (centres undefined)
[Q] COc1ccc(NC(=O)Cn2nc3cc(C)nc(Nc4ccc(C)c(C)c4)n3c2=O)cc1
I'm curious, which of these has a smaller RP-LC retention time number: P or Q ? # respond with the chosen item's label
P

###

Assay: gradient 5% acetonitrile 3 min, to 50% in 2 min, to 85% in 15 min, held 3 min, 100 µL/min
Settings: column: Zorbax Extend-C18 2.1 x 50 mm; eluents: water / acetonitrile, 0.1% formic acid
value_type: RP-LC retention time (s)

Here is how some compounds turned out for RP-LC retention time.
[[record]]
compound = "CCNC(=O)C1(C)CC(c2ccccc2)=NO1 (centres undefined)"
observed_measurement = 732

[[record]]
compound = "O=C(C1CC(=O)N(c2ccc(F)cc2)C1)N1CC(c2nc(-c3ccccn3)no2)C1 (centres undefined)"
observed_measurement = 650

[[record]]
compound = "COc1ccc(-c2nnc(Cc3nc(-c4ccc(Cl)cc4)no3)o2)cc1OC"
observed_measurement = 990

[[record]]
compound = "COc1ccc(NC(=O)Cn2c(=O)c3cc(C)nn3c3ncccc32)c(OC)c1"
observed_measurement = 694

[[record]]
compound = "COc1ccc(Cl)cc1NC(=O)COc1cc(C)nc(N2CCCC2)n1"
observed_measurement = 613

[[record]]
compound = "Cn1c(N2CCCC(C(=O)N3CCN(Cc4ccccc4)CC3)C2)cc(=O)n(C)c1=O (centres undefined)"
observed_measurement = 597

[[record]]
compound = "CC1CCN(S(=O)(=O)N2CCC(C(=O)N3CCCC(Cc4nncn4CC4CC4)C3)CC2)CC1 (centres undefined)"
observed_measurement = 678

[[record]]
compound = "COc1ccc2c(c1)CCC1C2CC[C@@]2(C)C1CC[C@@H]2NCCCCCCN1C(=O)CCC1=O (some centres undefined)"
observed_measurement = 864

[[record]]
compound = "O=C(CN1C(=O)CCCc2cc(S(=O)(=O)N3CCCCC3)ccc21)NCc1ccc(F)cc1"
observed_measurement = 862

[[record]]
compound = "Cc1ccc(S(=O)(=O)N2CCc3nc(NC(=O)c4ccnn4C)sc3C2)cc1"
observed_measurement = 860


[1] COC(=O)C(C)NC(=O)N1CCC2(CC1)NC(=O)c1ccccc1O2 (centres undefined)
[2] COc1ccc(NC(=O)C2CCN(c3nccnc3Sc3ccccc3)CC2)cc1Cl
Given the listed records, identify the one among 1 and 2 with higher RP-LC retention time. # respond with the chosen item's label
2
